Origin of the recorded values: ChEMBL document CHEMBL1133148

system.tested: UniProt P33535
experiment.notes: Concentration required for inhibition of [3H]DAMGO binding to Opioid receptor mu 1 in rat brain membranes
endpoint.name: IC50

compound	endpoint.name	endpoint.value
NC(=O)[C@H](Cc1ccccc1)NC(=O)[C@H](Cc1c[nH]c2ccccc12)NC(=O)C[C@H]1CCCN1C(=O)[C@@H](N)Cc1ccc(O)cc1	IC50	1.8 nM
NC(=O)CC(NC(=O)[C@H](Cc1c[nH]c2ccccc12)NC(=O)[C@@H]1CCCN1C(=O)[C@@H](N)Cc1ccc(O)cc1)c1ccccc1 (stereo partly drawn)	IC50	680 nM
NC(=O)[C@H](Cc1ccccc1)NC(=O)[C@H](Cc1c[nH]c2ccccc12)NC(=O)C[C@@H]1CCCN1C(=O)[C@@H](N)Cc1ccc(O)cc1	IC50	72 nM

---

// Mu-type opioid receptor (Rattus norvegicus) Ki records

compound	Ki (nM)
NC(=O)CC(NC(=O)[C@H](Cc1c[nH]c2ccccc12)NC(=O)[C@@H]1CCCN1C(=O)[C@@H](N)Cc1ccc(O)cc1)c1ccccc1 (stereo not given in full)	908
NC(=O)[C@H](Cc1ccccc1)NC(=O)[C@H](Cc1c[nH]c2ccccc12)NC(=O)C[C@@H]1CCCN1C(=O)[C@@H](N)Cc1ccc(O)cc1	10.4
NC(=O)[C@H](Cc1ccccc1)NC(=O)[C@H](Cc1c[nH]c2ccccc12)NC(=O)C[C@H]1CCCN1C(=O)[C@@H](N)Cc1ccc(O)cc1	0.33
